# ASSAY_INFO: yeast display, Sf9 membrane polyspecificity reagent, FACS + sequencing; frameworks hold sequencing errors

SEQUENCE_DATA	polyreactivity (PSR sort gate)
QVQLVESGGGLVQAGGSLRLSCAASGRTFDEYAMVWYRQAPGKERELVAAINSSGNTYYADSVKGRFTISRDNAKNTVYLQMNSLKPEDTAVYYCAVRSYNTISDDMDYWGQGTQVTVSS	low polyreactivity
QVQLVESGGGLVQAGGSLRLSCSASVRTFYRNSMGWYRQAPGKEREFVAVISVSGGSTYYADSVKGRFTISRDNAKNTVYLQMNSLKPEDTAVYYCAADEYYTFSSFELRRMDYWGQGTQVTVSS	low polyreactivity
